B1: Dystrobrevin alpha, residues 235 to 294; numbered along this chain, Q9Y4J8 (parent)
chain: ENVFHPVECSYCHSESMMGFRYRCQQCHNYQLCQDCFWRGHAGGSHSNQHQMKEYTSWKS

variants of: B1; assay: abundance fitness (aPCA) (normalised: wild type 0, dead -1); higher = more abundant; growth selection in yeast, the domain comes from the species named; details: Homo sapiens
Would you kindly list abundance fitness for each of these variants?
Answers are plain numbers.

Examples with their reported abundance fitness follow.
T56Q
0.044
F37P
-0.62

Here is the next item to consider.
Request the reported abundance fitness associated with G19Y
-0.248
